target: hArc-NL (residues 207–277) (Homo sapiens); assay: ITC analysis of peptide binding to hArc-NL; conditions: 20 mM Tris-HCl pH 7.4, 150 mM NaCl, +25 °C, one-site binding model
Sequence (Q7LC44 207-277): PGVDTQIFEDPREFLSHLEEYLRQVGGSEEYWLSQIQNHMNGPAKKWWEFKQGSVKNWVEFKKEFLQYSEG
Each entry below carries its reported ΔH.
Record the value in kcal/mol, omitting the unit from your answer.

Use these answered entries as a reference point.
Ac-TSPKFRSR-NH2 [GKAP-R4]    -10.9
Ac-RIPSYRYR-NH2 [pStg(wt)]    -13.1

Asked: Requested field: ΔH. Item: Ac-TSPKFRSRNESYMRAMST-NH2 [GKAP-R4(long)]
Given back: -7.2

Asked: Please do the same for Ac-MPGCFRMR-NH2 [GKAP-R5] as well.
Given back: -8.2
